- System: A549
- PROCEDURE_DETAILS: Cytotoxicity against human A549 cells by SRB assay
- Assay type: functional
MEASUREMENT_LABEL: GI50 (µM)

| SMILES_RECORD | MEASUREMENT_LABEL | ENDPOINT_UNIT | MEAS_VALUE |
| --- | --- | --- | --- |
| COC1=C(Br)[C@H](O)[C@@]2(C=C1Br)CC(C(=O)NCCCCCNC(=O)C1=NO[C@]3(C=C(Br)C(=O)[C@@H]4O[C@@H]43)C1)=NO2 | GI50 | µM | 10.7 |
| COC1=C(Br)[C@H](O)[C@@]2(C=C1Br)CC(C(=O)NCCCCCNC(=O)C1=NO[C@]3(C=C(Br)C(=O)[C@H](Br)[C@@H]3O)C1)=NO2 | GI50 | µM | 5.4 |
| COC1=C(Br)[C@H](O)[C@@]2(C=C1Br)CC(C(=O)NCCCCNC(=O)C1=NO[C@]3(C=C(Br)C(=O)[C@@H](Br)[C@@H]3O)C1)=NO2 | GI50 | µM | 5.7 |
| COC1=C(Br)[C@H](O)[C@@]2(C=C1Br)CC(C(=O)NCCCCCNC(=O)C1=NO[C@]3(C=C(Br)C(=O)[C@@H](Br)[C@@H]3O)C1)=NO2 | GI50 | µM | 4.5 |
